Biological target: human CA XII (Homo sapiens, UniProt O43570)
Sequence (O43570 25-354): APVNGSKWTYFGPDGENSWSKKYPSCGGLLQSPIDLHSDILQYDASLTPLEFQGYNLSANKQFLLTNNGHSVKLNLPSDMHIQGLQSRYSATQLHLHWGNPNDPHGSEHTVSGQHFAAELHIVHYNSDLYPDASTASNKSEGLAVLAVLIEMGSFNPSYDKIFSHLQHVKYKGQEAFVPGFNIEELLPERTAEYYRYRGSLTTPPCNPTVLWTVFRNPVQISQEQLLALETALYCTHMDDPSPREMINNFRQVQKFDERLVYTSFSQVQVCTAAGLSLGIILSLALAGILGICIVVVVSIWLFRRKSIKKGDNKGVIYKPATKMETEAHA
Experiment: Stopped-flow CO2 hydrase assay, CA XII
Settings: Ki CA I / Ki CA XII
Grouping key: Selectivity Ratio I/XII. Bins: label 0: < 30; label 1: ≥ 30 and < 60; label 2: ≥ 60

Previously resolved entries follow.
> print(dat)
                                smiles.code  qualitative.label
1  NS(=O)(=O)c1ccc(CCNC(=S)N/N=C/c2ccccn2)cc1            label 0
2  NS(=O)(=O)c1cccc(NC(=S)N/N=C/c2ccccn2)c1            label 2
3  NS(=O)(=O)c1ccc(CCNC(=S)N/N=C/c2ccc(F)cc2)cc1            label 1
4  NS(=O)(=O)c1ccc(CCNC(=S)N/N=C/c2ccc(Cl)cc2)cc1            label 1
5              NNC(=S)Nc1cccc(S(N)(=O)=O)c1            label 0
6  COc1ccc(/C=N/NC(=S)NCCc2ccc(S(N)(=O)=O)cc2)cc1            label 2
7  NS(=O)(=O)c1ccc(CCNC(=S)N/N=C/c2ccccc2)cc1            label 2
8            NNC(=S)NCCc1ccc(S(N)(=O)=O)cc1            label 0

Next item in the queue.
## Task Place this compound in its band: NS(=O)(=O)c1ccc(CCNC(=S)N/N=C/c2ccc(Br)cc2)cc1
## Result label 1

Hey, just so you know, these numbers are from paper PMC11818225.
